- measuredOn: rPfGSK-3 (Plasmodium falciparum, UniProt O77344)
- Sequence (O77344 entry or part of it): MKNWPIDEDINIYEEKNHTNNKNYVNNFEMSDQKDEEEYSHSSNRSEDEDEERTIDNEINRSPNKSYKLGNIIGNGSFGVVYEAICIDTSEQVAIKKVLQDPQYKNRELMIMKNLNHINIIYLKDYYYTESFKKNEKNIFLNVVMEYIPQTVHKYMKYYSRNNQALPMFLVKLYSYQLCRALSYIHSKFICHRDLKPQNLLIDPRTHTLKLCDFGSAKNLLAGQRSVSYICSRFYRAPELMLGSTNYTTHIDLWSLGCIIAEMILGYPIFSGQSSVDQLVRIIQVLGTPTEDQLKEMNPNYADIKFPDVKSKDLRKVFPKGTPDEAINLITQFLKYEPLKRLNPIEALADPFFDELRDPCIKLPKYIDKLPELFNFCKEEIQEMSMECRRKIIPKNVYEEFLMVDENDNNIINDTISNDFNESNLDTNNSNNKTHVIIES
- protocolDescription: KinaseGlo Plus assay for inhibition of PfGSK-3
- Type: biochemical
- conditionLabel: 10 µM; remaining activity, calculated on DMSO controls; Table 3; read-out: rPfGSK-3 Activity at 10 µM [%]
Listing of recorded remaining activity at 10 µM by entry.
Report the value in % with no unit label.

Examples with answers:
>>> print(df.to_string())
                                   molecule  unitstring  reading
0  N#Cc1c(N)nc2sc(C(=O)Nc3cccc(Cl)c3)c(N)c2c1-c1ccc(N2CCNCC2)cc1Cl           %     72.6
1  CCCCCCCNC(=O)c1sc2nc(N)c(C#N)c(-c3cccc(C)c3)c2c1N           %     84.7
2  Cc1cccc(-c2c(C(=O)OC(C)(C)C)c(C)nc3sc(C(=O)Nc4ccc(Cl)cc4)c(N)c23)c1 [Compound 17h]           %      106

Now let's try a different one.
Reported remaining activity at 10 µM ( CC(C)(C)OC(=O)N1CCN(c2ccc(-c3c(C#N)c(N)nc4sc(C(=O)Nc5cccc(Cl)c5)c(N)c34)c(Cl)c2)CC1 ) = 111
